# assayed_target: human MAO-B (Homo sapiens, UniProt P27338)
# Construct: purchased Sigma-Aldrich
# Sequence (P27338 whole entry): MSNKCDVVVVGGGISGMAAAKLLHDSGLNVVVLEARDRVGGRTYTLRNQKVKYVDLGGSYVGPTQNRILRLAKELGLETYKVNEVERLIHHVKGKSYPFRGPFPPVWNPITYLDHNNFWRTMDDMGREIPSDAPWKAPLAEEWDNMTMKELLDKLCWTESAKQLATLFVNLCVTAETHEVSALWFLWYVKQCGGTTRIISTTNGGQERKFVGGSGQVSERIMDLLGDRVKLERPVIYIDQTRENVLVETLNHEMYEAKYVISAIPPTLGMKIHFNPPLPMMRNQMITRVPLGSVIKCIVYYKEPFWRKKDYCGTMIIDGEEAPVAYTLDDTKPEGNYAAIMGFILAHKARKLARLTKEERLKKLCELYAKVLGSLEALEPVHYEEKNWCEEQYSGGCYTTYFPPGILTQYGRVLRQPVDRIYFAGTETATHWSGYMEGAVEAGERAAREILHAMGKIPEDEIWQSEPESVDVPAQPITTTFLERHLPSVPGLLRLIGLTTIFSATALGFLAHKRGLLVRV
# procedure_details: IC50 determination for MAO-B inhibition (kynuramine, fluorescence)
# Type: biochemical
# stated_conditions: SI = IC50(MAO-A)/IC50(MAO-B)
Entries and their measured Selectivity index follow.

COc1cc(OC)c(/C=C/C(=O)c2ccc(Br)cc2)c(OC)c1 <0.005

Q: Give recorded Selectivity index. CS(=O)(=O)c1ccc(C(=O)/C=C/c2ccc(Br)cc2)cc1
Ans: >240

Q: Give recorded Selectivity index. O=C(/C=C/c1cccc2c1OCO2)c1cccc(Br)c1
Ans: >1230

Q: Give recorded Selectivity index. O=C(/C=C/c1cccc2c1OCO2)c1cccc(Cl)c1
Ans: >1720

* * *

# assayed_target: human MAO-A (Homo sapiens)
# Construct: purchased Sigma-Aldrich
# Sequence (P21397 whole entry): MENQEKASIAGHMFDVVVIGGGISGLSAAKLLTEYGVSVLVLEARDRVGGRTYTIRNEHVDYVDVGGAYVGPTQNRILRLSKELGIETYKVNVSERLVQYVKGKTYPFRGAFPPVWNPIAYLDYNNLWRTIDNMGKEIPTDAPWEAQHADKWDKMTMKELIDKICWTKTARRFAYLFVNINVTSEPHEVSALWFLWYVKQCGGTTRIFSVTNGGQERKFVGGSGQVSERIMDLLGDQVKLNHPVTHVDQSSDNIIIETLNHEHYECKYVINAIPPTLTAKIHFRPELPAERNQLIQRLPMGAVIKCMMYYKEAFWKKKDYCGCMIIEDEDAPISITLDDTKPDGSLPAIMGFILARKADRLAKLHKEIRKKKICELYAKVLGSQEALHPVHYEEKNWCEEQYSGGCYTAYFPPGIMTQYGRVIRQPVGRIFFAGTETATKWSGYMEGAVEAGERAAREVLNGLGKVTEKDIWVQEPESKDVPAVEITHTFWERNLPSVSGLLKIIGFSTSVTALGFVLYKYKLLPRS
# procedure_details: IC50 determination for MAO-A inhibition (kynuramine, fluorescence)
# Assay type: biochemical
# stated_conditions: recombinant hMAO-A, kynuramine 50 μM, mean ± SD (triplicate)
measured_metric: IC50

O=C(/C=C/c1cccc2c1OCO2)c1cccc(Cl)c1 > 100 µM
CN(C)c1ccc(/C=C/C(=O)c2ccc(Br)cc2)cc1 > 100 µM
CCOc1cccc(/C=C/C(=O)c2ccc(Br)cc2)c1OCC > 100 µM
CN(C)c1ccc(/C=C/C(=O)c2ccc(C(F)(F)F)cc2)cc1 > 100 µM

Let's switch to this compound now.
Q: Give recorded IC50. CN(C)c1ccc(/C=C/C(=O)c2ccc(Cl)cc2)cc1
Ans: > 100 µM

* * *

# assayed_target: human MAO-B (Homo sapiens, UniProt P27338)
# Construct: purchased Sigma-Aldrich
# procedure_details: IC50 determination for MAO-B inhibition (kynuramine, fluorescence)
# Type: biochemical
# stated_conditions: SI = IC50(MAO-A)/IC50(MAO-B)
measured_metric: Selectivity index

molecule	Selectivity index
CN(C)c1ccc(/C=C/C(=O)c2ccc(Cl)cc2)cc1 [Compound 4]	>310
COc1cc(OC)c(/C=C/C(=O)c2ccc(F)cc2)c(OC)c1 [Compound 19]	<0.004

Let's switch to this molecule now.
Q: # return Selectivity index of CN(C)c1ccc(/C=C/C(=O)c2ccc(Br)cc2)cc1 [Compound 3] (system: human MAO-B (Homo sapiens, UniProt P27338))
Ans: >185

* * *

measured_metric: melting point

Recorded results for 3 molecules are shown here.
molecule	melting point
COc1ccccc1/C=C/C(=O)c1ccc(Br)cc1 [Compound 20]	73 to 77 °C
O=C(/C=C/c1ccc([N+](=O)[O-])cc1)c1ccc(Cl)cc1 [Compound 13]	162 to 166 °C
O=C(/C=C/c1ccc([N+](=O)[O-])cc1)c1ccc(F)cc1 [Compound 12]	165 to 169 °C

Q: Give recorded melting point. COc1cc(Br)ccc1/C=C/C(=O)c1ccc(S(C)(=O)=O)cc1 [Compound 10]
Ans: 199 to 203 °C
